Target: Env of HIV-1 strain 231965.c1 (HIV-1)
Assay: cell-based or functional assay
measured metric: neutralization IC50 (µg/mL)
Respond numerically; units are µg/mL and should not be typed.

# neutralization IC50 (binder: γ52κ18 (antibody, V domains shown) VH: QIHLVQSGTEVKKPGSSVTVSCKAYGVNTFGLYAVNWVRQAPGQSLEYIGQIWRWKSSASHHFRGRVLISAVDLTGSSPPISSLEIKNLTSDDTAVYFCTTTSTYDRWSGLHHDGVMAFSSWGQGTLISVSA VL: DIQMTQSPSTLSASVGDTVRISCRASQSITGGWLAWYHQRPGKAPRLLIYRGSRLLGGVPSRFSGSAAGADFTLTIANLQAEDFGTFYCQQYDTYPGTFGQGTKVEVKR ) is 0.284
